Tested on: OVCAR-5 ovarian
protocolSummary: NCI tumour cell line growth inhibition, 48 h
Entries and their measured TGI follow.
endpointLabel: TGI (µM)

compound | targetSystem | valueQualifier | measuredResult
COc1ccc(C2[C@@H](c3ccccc3)C(=O)N2c2cc(OC)c(OC)c(OC)c2)cc1F (some centres not stated) | OVCAR-5 ovarian | > | 100
Cc1cc(Nc2ccc(S(=O)(=O)O)c3cc(S(=O)(=O)O)cc(S(=O)(=O)O)c23)c2ccccc2n1 | OVCAR-5 ovarian | > | 100
O=C(/C=C/c1ccc2c(c1)OCO2)Cc1nc2ncccc2[nH]c1=O | OVCAR-5 ovarian | > | 100
c1ccc(NCn2cnc3ccccc32)cc1 | OVCAR-5 ovarian | > | 100
Oc1ccc2c(c1)c1c(n2CCN2CCOCC2)-c2ccccc2CC1 | OVCAR-5 ovarian | = | 60.5
CCN(Cc1ccc(F)cc1)c1cc(Cl)c(CO)c(Cl)c1 | OVCAR-5 ovarian | = | 17.7
COc1cc(C2CC(C)(O)Oc3cc4c(cc32)OCO4)cc(OC)c1OC (configuration not stated) | OVCAR-5 ovarian | > | 100
Nc1nccc(-c2c[nH]c3cc(Br)ccc23)n1 | OVCAR-5 ovarian | = | 49
CCCCCC[C@@H]1CCC2C(CO)[C@@H](O)CC[C@@H]2C1 (some centres not stated) | OVCAR-5 ovarian | = | 33.9
Nc1ccccc1SC(CC(=O)c1ccccc1)c1cccc([N+](=O)[O-])c1 (configuration not stated) | OVCAR-5 ovarian | = | 32.2
COc1ccc(/C=N/NC(=O)c2cccc3cc[nH]c23)cc1O | OVCAR-5 ovarian | > | 100
COc1ccc(-c2cn[nH]c2-c2cc(OC)c(OC)c(OC)c2)cc1 | OVCAR-5 ovarian | = | 36.9
COC(=O)C1=C(C(=O)OC)SC(=C2SCSC3=C2SC(C(=O)OC)=C(C(=O)OC)C32SC3=C(CCCC3)S2)S1 | OVCAR-5 ovarian | > | 100
N[C@@H](CCC(=O)NCP(=O)(O)O)C(=O)O | OVCAR-5 ovarian | > | 100
Nc1n[nH]c2cccc(C#Cc3cccc(C(=O)Nc4ccc(CN5CCOCC5)c(C(F)(F)F)c4)c3)c12 | OVCAR-5 ovarian | = | 19.8
CN(C)CC1CC/C(=C\c2ccc(O)cc2)C1=O (configuration not stated) | OVCAR-5 ovarian | = | 31.6
CCC(=O)NC(Nc1cc(C)on1)(C(F)(F)F)C(F)(F)F | OVCAR-5 ovarian | > | 100
O=S(=O)(c1ccccc1)N1CCN(S(=O)(=O)c2ccccc2)c2ccccc21 | OVCAR-5 ovarian | > | 100
O=CNc1ccc2c(c1)C(=O)c1ccccc1-2 | OVCAR-5 ovarian | > | 100
CC1(C)O[C@H]2OC(CO[Si](C)(C)C(C)(C)C)C(N=[N+]=[N-])[C@H]2O1 (some centres not stated) | OVCAR-5 ovarian | = | 35.2
COc1cccc(Nc2nc(-c3cccs3)nc3cc(OC)c(OC)cc23)c1 | OVCAR-5 ovarian | > | 100
C/C(=C\CBr)CCC(Br)C(C)(C)Br (configuration not stated) | OVCAR-5 ovarian | > | 100

====

Test system: PC-3 prostate
protocolSummary: NCI tumour cell line growth inhibition, 48 h
Examples of compounds with documented TGI follow.

chemicalSmiles | TGI
O=C(/C=C/c1ccc(O)cc1)c1ccc(O)cc1 | > 100 µM
N=c1nnc2ccc(Cl)cc2n1O | > 100 µM
Nn1c(Nc2ccc(S(=O)(=O)Nc3ncccn3)cc2)nnc(/C=C/c2c(O)ccc3ccccc23)c1=O | > 100 µM
Cc1ccccc1C(=N)c1ccccc1Cc1cccc2ccccc12 | > 100 µM
Nc1nccc(-c2c[nH]c3cc(Br)ccc23)n1 | > 100 µM
[N-]=[N+]=NC(c1ccccc1)(c1ccccc1)c1ccccc1 | 29.4 µM
